Values compiled from ChEMBL document CHEMBL1148385.

- Study system: Delta-type opioid receptor (Mus musculus)
- Experimental details: Binding affinity towards opioid receptor delta 1 expressed in CHO cells was determined by using [3H]DPDPE as radioligand

[
  {
    "Molecule": "CC[C@H](C)[C@H](NC(=O)[C@H](CCCN=C(N)N)NC(=O)[C@H](CCCN=C(N)N)NC(=O)[C@H](CC(C)C)NC(=O)[C@H](Cc1ccccc1)NC(=O)CNC(=O)CNC(=O)[C@@H](N)Cc1ccc(O)cc1)C(=O)N[C@@H](CCCN=C(N)N)C(=O)N1CCC[C@H]1C(=O)N[C@@H](CCCCN)C(=O)N[C@@H](CC(C)C)C(=O)N[C@@H](CCCCN)C(N)=O",
    "Ki [nM]": 6.07
  }
]

###

- Study system: Delta-type opioid receptor (Mus musculus, UniProt P32300)
- Sequence (P32300 whole entry): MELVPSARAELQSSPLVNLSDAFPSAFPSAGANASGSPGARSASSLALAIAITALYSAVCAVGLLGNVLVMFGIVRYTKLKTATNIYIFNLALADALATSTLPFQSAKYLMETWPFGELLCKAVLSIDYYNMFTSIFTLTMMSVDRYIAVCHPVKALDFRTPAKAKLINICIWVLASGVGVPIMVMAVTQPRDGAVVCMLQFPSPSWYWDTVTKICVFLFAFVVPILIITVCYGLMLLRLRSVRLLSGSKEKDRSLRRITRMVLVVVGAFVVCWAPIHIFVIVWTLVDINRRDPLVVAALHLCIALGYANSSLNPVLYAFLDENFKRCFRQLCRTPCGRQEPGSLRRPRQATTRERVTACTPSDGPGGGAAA
- Experimental details: Binding affinity towards opioid receptor delta 1 expressed in CHO cells was determined by using [3H]DPDPE as radioligand
pKi: −log10 of the molar value.

[
  {
    "Molecule": "CC[C@H](C)[C@H](NC(=O)[C@H](CCCN=C(N)N)NC(=O)[C@H](CCCN=C(N)N)NC(=O)[C@@H]1CNC(=O)C[C@@H](NC(=O)[C@@H](N)Cc2ccc(O)cc2)C(=O)N[C@@H](C)C(=O)N[C@@H](Cc2ccccc2)C(=O)N1)C(=O)N[C@@H](CCCN=C(N)N)C(=O)N1CCC[C@H]1C(=O)N[C@@H](CCCCN)C(N)=O",
    "Measurement qualifier": "=",
    "pKi": 7.51
  },
  {
    "Molecule": "CC[C@H](C)[C@H](NC(=O)[C@H](CCCNC(=N)N)NC(=O)[C@H](CCCNC(=N)N)NC(=O)[C@@H]1CNC(=O)C[C@@H](NC(=O)[C@@H](N)Cc2ccc(O)cc2)C(=O)N2CCC[C@H]2C(=O)N[C@@H](Cc2ccccc2)C(=O)N1)C(=O)N[C@@H](CCCNC(=N)N)C(=O)N1CCC[C@H]1C(=O)N[C@@H](CCCCN)C(N)=O",
    "Measurement qualifier": "<",
    "pKi": 5.00
  },
  {
    "Molecule": "CC[C@H](C)[C@H](NC(=O)[C@H](CCCN=C(N)N)NC(=O)[C@H](CCCN=C(N)N)NC(=O)[C@H](CN)NC(=O)[C@H](Cc1ccccc1)NC(=O)[C@@H](Cc1c[nH]c2ccccc12)NC(=O)[C@@H](CC(=O)O)NC(=O)[C@@H](N)Cc1ccc(O)cc1)C(=O)N[C@@H](CCCN=C(N)N)C(=O)N1CCC[C@H]1C(=O)N[C@@H](CCCCN)C(N)=O",
    "Measurement qualifier": "=",
    "pKi": 6.09
  }
]

###

- Study system: Delta-type opioid receptor (Mus musculus)
- Experimental details: Binding affinity towards opioid receptor delta 1 expressed in CHO cells was determined by using [3H]DPDPE as radioligand
compounds and their reported Ki
Readout: Ki

[
  {
    "Molecule": "CC[C@H](C)[C@H](NC(=O)[C@H](CCCNC(=N)N)NC(=O)[C@H](CCCNC(=N)N)NC(=O)[C@H](CC(C)C)NC(=O)[C@H](Cc1ccccc1)NC(=O)[C@@H](Cc1c[nH]c2ccccc12)NC(=O)CNC(=O)[C@@H](N)Cc1ccc(O)cc1)C(=O)N[C@@H](CCCNC(=N)N)C(=O)N1CCC[C@H]1C(=O)N[C@@H](CCCCN)C(N)=O",
    "Study system": "Delta-type opioid receptor (Mus musculus)",
    "Assay result": "1080 nM"
  },
  {
    "Molecule": "CC[C@H](C)[C@H](NC(=O)[C@H](CCCN=C(N)N)NC(=O)[C@H](CCCN=C(N)N)NC(=O)[C@@H]1CNC(=O)C[C@@H](NC(=O)[C@@H](N)Cc2ccc(O)cc2)C(=O)NCC(=O)N[C@@H](Cc2ccccc2)C(=O)N1)C(=O)N[C@@H](CCCN=C(N)N)C(=O)N1CCC[C@H]1C(=O)N[C@@H](CCCCN)C(N)=O",
    "Study system": "Delta-type opioid receptor (Mus musculus)",
    "Assay result": "5.1 nM"
  },
  {
    "Molecule": "CC[C@H](C)[C@H](NC(=O)[C@H](CCCN=C(N)N)NC(=O)[C@H](CCCN=C(N)N)NC(=O)[C@H](CN)NC(=O)[C@H](Cc1ccccc1)NC(=O)[C@@H](C)NC(=O)[C@@H](CC(=O)O)NC(=O)[C@@H](N)Cc1ccc(O)cc1)C(=O)N[C@@H](CCCN=C(N)N)C(=O)N1CCC[C@H]1C(=O)N[C@@H](CCCCN)C(N)=O",
    "Study system": "Delta-type opioid receptor (Mus musculus)",
    "Assay result": "959 nM"
  }
]

###

molecules and their reported Ki
- Study system: Delta-type opioid receptor (Mus musculus, UniProt P32300)
- Experimental details: Binding affinity towards opioid receptor delta 1 expressed in CHO cells was determined by using [3H]DPDPE as radioligand
Readout: Ki (µM)

[
  {
    "Molecule": "CC[C@H](C)[C@H](NC(=O)[C@H](CCCN=C(N)N)NC(=O)[C@H](CCCN=C(N)N)NC(=O)[C@H](CN)NC(=O)[C@H](Cc1ccccc1)NC(=O)[C@H](Cc1c[nH]c2ccccc12)NC(=O)[C@@H](CC(=O)O)NC(=O)[C@@H](N)Cc1ccc(O)cc1)C(=O)N[C@@H](CCCN=C(N)N)C(=O)N1CCC[C@H]1C(=O)N[C@@H](CCCCN)C(N)=O",
    "Study system": "Delta-type opioid receptor (Mus musculus, UniProt P32300)",
    "Value unit": "µM",
    "Assay result": 0.927
  },
  {
    "Molecule": "CC[C@H](C)[C@H](NC(=O)[C@H](CCCNC(=N)N)NC(=O)[C@H](CCCNC(=N)N)NC(=O)[C@@H]1CNC(=O)C[C@@H](NC(=O)[C@@H](N)Cc2ccc(O)cc2)C(=O)N[C@@H](Cc2c[nH]c3ccccc23)C(=O)N[C@@H](Cc2ccccc2)C(=O)N1)C(=O)N[C@@H](CCCNC(=N)N)C(=O)N1CCC[C@H]1C(=O)N[C@@H](CCCCN)C(N)=O",
    "Study system": "Delta-type opioid receptor (Mus musculus, UniProt P32300)",
    "Value unit": "µM",
    "Assay result": 7.07
  }
]

###

- Study system: Kappa-type opioid receptor (Rattus norvegicus, UniProt P34975)
- Sequence (P34975 whole entry): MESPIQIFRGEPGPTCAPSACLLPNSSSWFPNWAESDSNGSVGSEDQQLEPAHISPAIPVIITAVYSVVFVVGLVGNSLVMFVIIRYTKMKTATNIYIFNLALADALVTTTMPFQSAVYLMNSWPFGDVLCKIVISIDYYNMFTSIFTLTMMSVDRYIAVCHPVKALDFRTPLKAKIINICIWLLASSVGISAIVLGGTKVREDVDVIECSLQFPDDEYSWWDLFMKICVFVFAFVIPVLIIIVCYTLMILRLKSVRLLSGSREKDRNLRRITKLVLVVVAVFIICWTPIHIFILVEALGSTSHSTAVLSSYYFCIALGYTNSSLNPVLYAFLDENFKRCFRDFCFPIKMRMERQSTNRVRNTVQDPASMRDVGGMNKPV
- Experimental details: Inhibition of forskolin-stimulated adenylyl cyclase activity by compound in CHO cells expressing Opioid receptor kappa 1
compounds and their reported EC50
Readout: EC50

[
  {
    "Molecule": "CC[C@H](C)[C@H](NC(=O)[C@H](CCCNC(=N)N)NC(=O)[C@H](CCCNC(=N)N)NC(=O)[C@@H]1CNC(=O)C[C@@H](NC(=O)[C@@H](N)Cc2ccc(O)cc2)C(=O)N[C@@H](Cc2c[nH]c3ccccc23)C(=O)N[C@@H](Cc2ccccc2)C(=O)N1)C(=O)N[C@@H](CCCNC(=N)N)C(=O)N1CCC[C@H]1C(=O)N[C@@H](CCCCN)C(N)=O",
    "Readout": "EC50",
    "Assay result": "4.19 nM"
  },
  {
    "Molecule": "CC[C@H](C)[C@H](NC(=O)[C@H](CCCN=C(N)N)NC(=O)[C@H](CCCN=C(N)N)NC(=O)[C@@H]1CNC(=O)C[C@@H](NC(=O)[C@@H](N)Cc2ccc(O)cc2)C(=O)N[C@@H](C)C(=O)N[C@@H](Cc2ccccc2)C(=O)N1)C(=O)N[C@@H](CCCN=C(N)N)C(=O)N1CCC[C@H]1C(=O)N[C@@H](CCCCN)C(N)=O",
    "Readout": "EC50",
    "Assay result": "0.65 nM"
  },
  {
    "Molecule": "CC[C@H](C)[C@H](NC(=O)[C@H](CCCNC(=N)N)NC(=O)[C@H](CCCNC(=N)N)NC(=O)[C@@H]1CNC(=O)C[C@@H](NC(=O)[C@@H](N)Cc2ccc(O)cc2)C(=O)N[C@H](C)C(=O)N[C@@H](Cc2ccccc2)C(=O)N1)C(=O)N[C@@H](CCCNC(=N)N)C(=O)N1CCC[C@H]1C(=O)N[C@@H](CCCCN)C(N)=O",
    "Readout": "EC50",
    "Assay result": "0.54 nM"
  },
  {
    "Molecule": "CC[C@H](C)[C@H](NC(=O)[C@H](CCCN=C(N)N)NC(=O)[C@H](CCCN=C(N)N)NC(=O)[C@@H]1CNC(=O)C[C@@H](NC(=O)[C@@H](N)Cc2ccc(O)cc2)C(=O)N[C@H](Cc2c[nH]c3ccccc23)C(=O)N[C@@H](Cc2ccccc2)C(=O)N1)C(=O)N[C@@H](CCCN=C(N)N)C(=O)N1CCC[C@H]1C(=O)N[C@@H](CCCCN)C(N)=O",
    "Readout": "EC50",
    "Assay result": "12 nM"
  },
  {
    "Molecule": "CC[C@H](C)[C@H](NC(=O)[C@H](CCCN=C(N)N)NC(=O)[C@H](CCCN=C(N)N)NC(=O)[C@@H]1CNC(=O)C[C@@H](NC(=O)[C@@H](N)Cc2ccc(O)cc2)C(=O)NCC(=O)N[C@@H](Cc2ccccc2)C(=O)N1)C(=O)N[C@@H](CCCN=C(N)N)C(=O)N1CCC[C@H]1C(=O)N[C@@H](CCCCN)C(N)=O",
    "Readout": "EC50",
    "Assay result": "0.39 nM"
  },
  {
    "Molecule": "CC[C@H](C)[C@H](NC(=O)[C@H](CCCNC(=N)N)NC(=O)[C@H](CCCNC(=N)N)NC(=O)[C@@H]1CNC(=O)C[C@@H](NC(=O)[C@@H](N)Cc2ccc(O)cc2)C(=O)N2CCC[C@H]2C(=O)N[C@@H](Cc2ccccc2)C(=O)N1)C(=O)N[C@@H](CCCNC(=N)N)C(=O)N1CCC[C@H]1C(=O)N[C@@H](CCCCN)C(N)=O",
    "Readout": "EC50",
    "Assay result": "153 nM"
  }
]
